Dear all, I have gathered published log10 IC50 values for hCRTH2 receptor (Homo sapiens (Human)); the list follows.
observable: log10 IC50 (log10 of the value in nM)

input_smiles	log10 IC50
CCC(=O)N(Cc1ccc(Cl)c(OC(F)(F)F)c1)c1cc(F)cc(-c2nnn[nH]2)c1	1.26
CCC(=O)N(Cc1cccc(SC(F)(F)F)c1)c1cc(F)cc(-c2nnn[nH]2)c1	1.20
Cc1nc2c(s1)[C@H](c1cc(Cl)ccc1OCC(=O)O)N(C(=O)[C@@H]1C[C@H]1c1ccccc1)CC2	2.76
O=C(O)Cc1ccc(Cl)c(-c2ccc(F)c3c2CN(C(=O)[C@@H]2C[C@H]2c2ccccc2)CC3)c1	1.00
O=C(O)Cc1ccccc1-c1ccc(F)c2c1CN(C(=O)OCc1ccccc1)CC2	2.94
